Values were extracted from the supplement of paper PMC8728848.

Measured glycan array binding signal (z-score) by item
Biological target: Gal(b1-3)GlcNAc(b1-3)Gal(b1-4)Glc
Experiment: glycan array binding signal (z-score within array); higher = stronger binding
Conditions: glycan notation: IUPAC condensed, linker removed
The full list was thinned out, with the strongest signals kept by preference.

| Binder | glycan array binding signal (z-score) |
| --- | --- |
| Cohesin-mDCIR (Macaca mulatta) (protein) GLDDLDAVRIKVDTVNAKPGDTVRIPVRFSGIPSKGIANCDFVYSYDPNVLEIIEIEPGDIIVDPNPDKSFDTAVYPDRKIIVFLFAEDSGTGAYAITKDGVFATIVAKVKEGAPNGLSVIKFVEVGGFANNDLVEQKTQFFDGGVNVGDTTEPATPTTPVTTPTTTDDLDAASFQKYSQLLEKMTTKDLVHTTLECVKKNMTTEETAWSCCPKNWKPFSSNCYFISTESASWQKSEKDCARMEAHLLVINTREEQDFIFQNLQEESAYFVGLSDPEGQRHWQWVDRTPYNESSTFWHPHEPSDPDERCVVLNFRKTPKRWGWNDVHCIVHQRSVCEMMKIHLHHHHHH | -0.363 |
| Gal 2 (Homo sapiens), P05162 (protein) MTGELEVKNMDMKPGSTLKITGSIADGTDGFVINLGQGTDKLNLHFNPRFSESTIVCNSLDGSNWGQEQREDHLCFSPGSEVKFTVTFESDKFKVKLPDGHELTFPNRLGHSHLSYLSVRGGFNMSSFKLKE | 0.74 |
| Surfactant Protein D (rat); Neck + Carbohydrate Recognition Domain (NCRD) (Rattus norvegicus) (protein) MLLFLLSALVLLTQPLGYLEAEMKTYSHRTMPSACTLVMCSSVESGLPGRDGRDGREGPRGEKGDPGLPGAAGQAGMPGQAGPVGPKGDNGSVGEPGPKGDTGPSGPPGPPGVPGPAGREGALGKQGNIGPQGKPGPKGEAGPKGEVGAPGMQGSAGARGAGPKGERGVPGERGVPGNTGAAGSAGAMGPQGSPGARGPPGLKGDKGIPGDKGAKGESGLPDVASLRQQVEALQGQVQHLQAAFSQYKKVELFPNGQSVGEKIFKTAGFVKPFTEAQLLCTQAGGQLASPRSAAENAALQQLVVAKNEAAFLSMTDSKTEGKFTYPTGESLVYSNWAPGEPNDDGGSEDCVEIFTNGKWNDRACGEKRLVVCEF | -0.194 |
| EPL1 (Trichoderma atroviride), A0PCX2 (protein) MQLSNLFKLALFTAAVSADTVSYDTGYDDASRSLTVVSCSDGTNGLITRYHWQTQGQIPRFPYIGGAQAVAGWNSPNCGTCWKLTYSGKTIYVLAIDHTAAGFNIGLDAMNALTNGNAVALGRVSATASQVAVSNCGL | 1.82 |
| Sp8391B-bot-388-20-388 (Bacteroides ovatus) (protein) GCQNNDENEQHYDNKLFISASNFTKEILFKAGDTNVETGLSVAIAKPEEHDIKVTMSPAPELLSTYKLAYYDETAVLLSEEHYSMPETSTTIKSGSIVSPELPIEFINTGELDIKTTYVLPVTIKSVEGIGVLQSAKTYYYVFRGASLINVVCNISRNRAYPDFKNDSKFNNLTENTMEILFKANSFPNTLNTLMGIESNYLLRIGDATIPNNQLQVATSVNNCTSADLQLESGKWYHVAVAFNKGNVKVYINGVEKLSGSTGKSSVSLGAKHTNEEDGSRCFWVGYSYKDDRYFDGVVSEVRIWNRALTAEEIQATNHFYTIEPESEGLIAYWKFDEGSGTVAKDYSVSGYDLTIEKEPKWESVSLPQ | 0.105 |
